# TARGET_SYSTEM: Retinoic acid receptor beta (Homo sapiens)
# EXPERIMENTAL_PROTOCOL: Agonist activity at RARbeta2 expressed in mouse NIH3T3 cells by R-SAT assay
# Type: functional, cell-based
pEC50: −log10 of the molar value.

COMPOUND_SMILES: CCCCCCCCc1ccc(-c2ccc(C(=O)O)cc2F)cc1
pEC50: 7.00
//
COMPOUND_SMILES: CCCOCCOc1nc(-c2ccc(C(=O)O)cc2)sc1C
pEC50: 6.90
//
COMPOUND_SMILES: CCCCCCCCOc1ccc(-c2ccc(C(=O)O)cc2)cc1
pEC50: 7.00
//
COMPOUND_SMILES: CCCCCCOc1ccc(-c2ccc(C(=O)O)cc2)cc1
pEC50: 7.50
//
COMPOUND_SMILES: CCCCOCCOc1ccc(-c2ccc(C(=O)O)c(F)c2)cc1
pEC50: 7.70
//
COMPOUND_SMILES: CCCCCCCCc1ccc(-c2ccc(C(=O)O)c(C)c2)cc1
pEC50: 6.20

###

# EXPERIMENTAL_PROTOCOL: Aqueous solubility in phosphate buffer at pH 7.4
# Assay type: physicochemical
# solubility per entry
VALUE_TYPE: solubility (µg/mL)

COMPOUND_SMILES: CCCCOCCOc1ccc(-c2ccc(C(=O)O)c(F)c2)cc1
RESULT_QUALIFIER: =
NUMERIC_READOUT: 20

COMPOUND_SMILES: CCCCCCCCc1ccc(-c2ccc(C(=O)O)cc2)cc1
RESULT_QUALIFIER: <
NUMERIC_READOUT: 1

###

# TARGET_SYSTEM: Retinoic acid receptor beta (Homo sapiens)
# Sequence (P10826 whole entry): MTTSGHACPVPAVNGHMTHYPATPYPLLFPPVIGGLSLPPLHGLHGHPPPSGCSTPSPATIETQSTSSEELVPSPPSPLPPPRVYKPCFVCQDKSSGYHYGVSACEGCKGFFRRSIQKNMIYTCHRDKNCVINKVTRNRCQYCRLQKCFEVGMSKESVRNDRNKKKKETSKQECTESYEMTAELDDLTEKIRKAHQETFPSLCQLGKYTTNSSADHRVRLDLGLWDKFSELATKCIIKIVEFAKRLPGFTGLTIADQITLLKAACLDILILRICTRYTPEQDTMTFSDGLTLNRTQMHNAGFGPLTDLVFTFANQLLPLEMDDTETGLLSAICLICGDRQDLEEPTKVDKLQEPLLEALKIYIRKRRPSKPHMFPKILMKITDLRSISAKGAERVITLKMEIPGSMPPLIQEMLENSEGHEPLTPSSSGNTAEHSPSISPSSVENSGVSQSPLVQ
# EXPERIMENTAL_PROTOCOL: Activity at RARbeta1 expressed in mouse NIH3T3 cells by R-SAT assay
# Assay type: cell-based
# EC50 per entry
VALUE_TYPE: EC50 (nM)

COMPOUND_SMILES: CCCCOCCOc1nc(-c2ccc(C(=O)O)cc2)sc1C
VALUE_TYPE: EC50
NUMERIC_READOUT: 1260

COMPOUND_SMILES: CCCCOCCOc1nc(-c2ccc(C(=O)O)c(F)c2)sc1C
VALUE_TYPE: EC50
NUMERIC_READOUT: 398

COMPOUND_SMILES: CCCCCCCCc1ccc(-c2ccc(C(=O)O)cc2)cc1
VALUE_TYPE: EC50
NUMERIC_READOUT: 2000

COMPOUND_SMILES: CCCCCCCCc1ccc(-c2ccc(C(=O)O)c(F)c2)cc1
VALUE_TYPE: EC50
NUMERIC_READOUT: 398

COMPOUND_SMILES: CCCCCCCCOc1ccc(-c2ccc(C(=O)O)cc2)cc1
VALUE_TYPE: EC50
NUMERIC_READOUT: 1000
